# System: Huh-7 cells
# test_details: Release of active metabolite in Huh-7 cells
# Format: in vitro ADME, human
# cond: Table 7
Quick reference for Huh-7 AUC0-72 among some compounds
Expressed in pmol*hr/10^6cells, but write only the number.

Worked cases, answers included:
CC(C)OC(=O)[C@@H](C)NP(=O)(OC[C@H]1O[C@@H](n2ccc(=O)[nH]c2=O)[C@](C)(Cl)[C@@H]1O)Oc1ccccc1 (single isomer, unassigned) [Compound 40i Diastereomer 1] | 436.9
CC(C)OC(=O)[C@H](C)N[P@](=O)(OC[C@H]1O[C@@H](n2ccc(=O)[nH]c2=O)[C@](C)(F)[C@@H]1O)Oc1ccccc1 (single isomer, unassigned) [GS-7977, reference compound] | 63555
CC(C)OC(=O)[C@@H](C)N[P@@](=O)(OC[C@H]1O[C@@H](n2ccc(=O)[nH]c2=O)[C@](C)(F)[C@@H]1O)Oc1ccccc1 [Compound (804a) Ia (RP isomer)] | 720.4

Turning now to a further compound:
Task: Would you mind telling me what Huh-7 AUC0-72 value was observed for CC(C)OC(=O)[C@H](C)N[P@@](=O)(OC[C@H]1O[C@@H](n2ccc(=O)[nH]c2=O)[C@](C)(F)[C@@H]1O)Oc1ccccc1 [PSI-7976, reference compound] ?
Result: 6527
